- TEST_NAME: Hydrolysis rate of betaine ester, pH-stat titrator at constant pH and temperature
- Type: physicochemical
- CONDITION_DESCRIPTION: solution with 10 equivalents sodium dodecylsulfate, pH 10.5, 40°C, pH 10.5, with 10 equivalents of sodium dodecylsulfate; read-out: t1/2 at pH 10.5
OUTCOME_MEASURE: half-life

Inquiry: I would be grateful if you could share the reported half-life for CC(C)=CCC/C(C)=C/COC(=O)C[N+](C)(C)C.[Cl-] [BEG] .
Reply text: 1.73 h

----------
- TEST_NAME: Hydrolysis rate of betaine ester, pH-stat titrator at constant pH and temperature
- Format: physicochemical
- CONDITION_DESCRIPTION: sodium stearate solution in distilled water (2 equivalents), pH 10.5, 40°C, pH 10.5, with 2 equivalents sodium stearate; read-out: t1/2 pH 10.5
OUTCOME_MEASURE: half-life at 0.0125 mol/l (min)
Give bare numbers, in min.

Inquiry: I would be grateful if you could share the reported half-life at 0.0125 mol/l for CCCCCCCCCCCC[N+](C)(C)CC(=O)OC/C=C(\C)CCC=C(C)C.[Br-] [C12 BEG] .
Reply text: 1.7

----------
- TEST_NAME: Hydrolysis rate of betaine ester, pH-stat titrator at constant pH and temperature
- Type: physicochemical
- CONDITION_DESCRIPTION: solution with 3 equivalents sodium dodecylsulfate, pH 10.5, 40°C, pH 10.5, with 3 equivalents of sodium dodecylsulfate; read-out: t1/2 at pH 10.5
- Description: Test realised under pH-stat configuartion, at controlled temperature (40°C). Concentration in betaine ester used 1.5.10^-2 mol/l [formula] Test conditions: C12 BEG added to a solution (pH 10.5) of sodium stearate in distilled water. pH and temperature maintained constant all along the test. Percentage of C12 BEG hydrolysed assessed using an automatic pH stat titrator. […] [formula] • Hydrolysis rate determined with a Radiometer pH stat. • Temperature (40°C) and pH (10.5) maintained constant. […]
OUTCOME_MEASURE: half-life
Give the figure together with its unit, number first.

Inquiry: I would be grateful if you could share the reported half-life for CC(C)=CCC/C(C)=C/COC(=O)C[N+](C)(C)C.[Cl-] [BEG] .
Reply text: 1.05 h

----------
- TEST_NAME: Hydrolysis rate of betaine ester, pH-stat titrator at constant pH and temperature
- Type: physicochemical
- CONDITION_DESCRIPTION: solution with 1 equivalent sodium dodecylsulfate, pH 10.5, 40°C, pH 10.5, with 1 equivalent of sodium dodecylsulfate; read-out: t1/2 at pH 10.5
OUTCOME_MEASURE: half-life (min)
Give bare numbers, in min.

Inquiry: I would be grateful if you could share the reported half-life for `CC(C)=CCC/C(C)=C/COC(=O)C[N+](C)(C)C.[Cl-]` .
Reply text: 10.8

----------
- TEST_NAME: Hydrolysis rate of betaine ester, pH-stat titrator at constant pH and temperature
- Type: physicochemical
- CONDITION_DESCRIPTION: solution with 1 equivalent sodium dodecylsulfate, pH 10.5, 40°C, pH 10.5, with 1 equivalent sodium dodecylsulfate; read-out: t1/2 pH 10.5
OUTCOME_MEASURE: half-life (h)
Numbers only, in h.

Inquiry: I would be grateful if you could share the reported half-life for `CCCCCCCCCCCC[N+](C)(C)CC(=O)OC/C=C(\C)CCC=C(C)C.[Br-]` .
Reply text: 6.9
